Target or system human PDE10A2 (Homo sapiens (Human)); metric pIC50; compiled from varied reports.
pIC50: −log10 of the molar value.

COMPOUND | TARGET OF ASSAY | pIC50
O=C1c2cccc(-c3cscn3)c2CN1CCc1cn2ccccc2n1 | human PDE10A2 (Homo sapiens (Human)) | > 7.00
Cc1nc(-c2cnn(C)c2C(=O)NC2CCn3nc(-c4ccc(F)cc4)nc3C2)sc1C1CC1 (stereo not drawn) | human PDE10A2 (Homo sapiens (Human)) | 7.00 to 8.30
Cc1ccnnc1-c1cnn(C)c1C(=O)Nc1cc2nc(-c3ccccc3)nn2cc1F | human PDE10A2 (Homo sapiens (Human)) | > 8.30
O=C1c2c(cccc2N2CCOCC2)CN1CCc1ccc2sccc2n1 | human PDE10A2 (Homo sapiens (Human)) | 6.70 to 7.00
O=C1c2c(-c3cc[nH]n3)ccnc2CN1CCc1nc2ccccc2s1 | human PDE10A2 (Homo sapiens (Human)) | > 7.00
O=C1c2c(cccc2-c2cncnc2)CN1CCc1ccc2sccc2n1 | human PDE10A2 (Homo sapiens (Human)) | > 7.00
